run_description: UV absorption (λmax, molar and specific extinction, intrinsic coloration)
Type: physicochemical
test_context: Table 1, at λmax
Outcome label depends on E (molar extinction coefficient) relative to 30000 L/mol/cm: at/above gives fulfilled, below gives not fulfilled.

[[record]]
compound = "CC(C)COC(=O)C(=CN1c2ccccc2CC1C)C(=O)OCC(C)C (centres unmarked)"
category = "not fulfilled"

[[record]]
compound = "CCOC(=O)C(=CN1CCc2ccccc21)C(=O)OCC"
category = "fulfilled"

[[record]]
compound = "CCOC(=O)C(=CN1CCCc2ccccc21)C(=O)OCC"
category = "not fulfilled"


Kindly review the next compound as well.
Quick check, E (molar extinction coefficient) >= 30000 L/mol/cm? CCCCCCOC(=O)C(=CN1c2ccccc2CC1C)C(=O)OCCCCCC (centres unmarked)
not fulfilled

These measurements were taken from patent US4792609A.
